Values were extracted from the supplement of paper PMC9112550.

shrunken log2 fold change overview
test system: Escherichia coli TOP10; assay: shrunken log2 fold change of peptide-encoding DNA abundance (4.5 h post-induction vs induction); higher = less antimicrobial activity (less host growth inhibition); conditions: time post-induction: 4.5 h; library: site-saturation at positions 5, 18, 19, 20;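 further: peptides expressed intracellularly from a pBAD plasmid library in pooled LB shake-flask culture, induced with 0.3% L-arabinose, DNA abundance read by NGS, three biological replicates, DESeq2 with apeglm shrinkage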

Here is how some sequences turned out for shrunken log2 fold change.
recordSequence: RRIRGRPPRLPRPRPRPCWNPRP
shrunken log2 fold change: 0.183
//
recordSequence: RRIRHRPPRLPRPRPRPNLHPRP
shrunken log2 fold change: -0.759
//
recordSequence: RRIRYRPPRLPRPRPRPKQSPRP
shrunken log2 fold change: -0.156

Continue with the sequence presented below.
What value of measured shrunken log2 fold change is listed for RRIRHRPPRLPRPRPRPMCMPRP ?
0.201
